B1: library; numbered along this chain (parent)
chain: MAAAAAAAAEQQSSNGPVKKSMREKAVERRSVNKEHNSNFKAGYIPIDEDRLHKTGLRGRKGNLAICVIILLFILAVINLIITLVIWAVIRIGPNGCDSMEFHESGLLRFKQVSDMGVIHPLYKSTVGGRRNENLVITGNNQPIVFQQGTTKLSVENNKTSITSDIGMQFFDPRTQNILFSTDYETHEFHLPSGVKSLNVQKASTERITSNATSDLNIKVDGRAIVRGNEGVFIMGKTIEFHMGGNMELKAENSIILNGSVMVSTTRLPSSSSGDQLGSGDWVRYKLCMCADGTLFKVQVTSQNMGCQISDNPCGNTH

# Variants of: B1
# Procedure Summary: SGCB cell-surface expression functional score (HA stain, bin4 vs bin1, normalised to synonymous) (log10 ratio); higher = more cell-surface SGCB (functional)
Measure: SGCB cell-surface expression functional score (log10)
No unit in the answer, only the number.

{"columns": ["Variant Descriptor", "Number"],
 "data": [
  ["L52V", 0.17],
  ["S302W", -0.56],
  ["M1E", -0.03],
  ["F73N", 0.47],
  ["R174S", -0.45],
  ["T317P", -0.04],
  ["V195E", -0.23],
  ["G96W", -0.61],
  ["D98P", -0.12],
  ["R131Y", 0.31]
]}

I'd like to know its SGCB cell-surface expression functional score (log10). The variant in question is M235C
0.86

Now this one: L295F
-0.18

Queued: G149S
-0.12

Now the variant G293I
-0.08

Then E104K ?
0.13

Next record, please: D221M
0.53

Now try V145C .
-0.73

Now give it for I255H too.
-1.4

Now try G43N .
0.18

Query E101F next
-0.8

Same read-out for T186P ?
-1.73

Q169R ?
0.09

And the next one, E156N ?
-0.23

// next record N63P
0.32

And R223A ?
0.72
